- assayExplanation: Inhibition of ROCK in human PANC-1 cells assessed as decrease in MYPT1 phosphorylation at T850 residues measured after 1 hr by Western blot analysis
- Assay type: cell-based
- statedConditions: PANC-1, 1 h
metric: pIC50
On this scale, pIC50 is minus log10 of a concentration expressed in M (mol/L).

- COc1cccc([C@@H](C)NC(=O)N2CCN(c3ccncc3F)C[C@H]2C)c1: 7.85

Problem: Read off the recorded pIC50 for "COc1cccc([C@@H](C)NC(=O)c2ccc(-c3ccnc(F)c3)nc2)c1"
Result: 5.73

----------
This section lists IC50 readings for RAC-alpha serine/threonine-protein kinase (Homo sapiens).
Report as: number unit

• COc1cccc([C@@H](C)NC(=O)c2ccc(-c3ccnc(F)c3)cc2)c1 = 2.37 µM

Moving on to the next compound.
Problem: Read off the recorded IC50 for "COc1cccc([C@@H](C)NC(=O)c2ccc(-c3ccnc(F)c3)nc2)c1"
Result: 9.26 µM
